test system: Aspergillus fumigatus; assay: Antifungal activity against Aspergillus fumigatus 293 after 48 hrs by two-fold serial dilution method; type: functional; conditions: Aspergillus fumigatus, 293, 48 h
experimental-readout: log10 MIC (log10 of the value in µM)
Short version: log10 scale, MIC, µM.

Completed entries (count: 6):
CCOC(=O)C1=C(N/C=N/c2cccnc2Cl)Nc2[nH]nc(C)c2C1c1ccc(N(C)C)cc1 (configuration not stated) ... 2.72
CCOC(=O)C1=C(NN=C(C#N)C#N)Nc2[nH]nc(C)c2C1c1ccc(N(C)C)cc1 (configuration not stated) ... 3.38
CCOC(=O)C1=C(N/N=C(\c2ccc([N+](=O)[O-])cc2)N2CCN(c3ccc(F)cc3)CC2)Nc2[nH]nc(C)c2C1c1ccc(N(C)C)cc1 (configuration not stated) ... 3.48
CCOC(=O)C1=C(N/C=N/c2ccc([N+](=O)[O-])cc2)Nc2[nH]nc(C)c2C1c1ccc(N(C)C)cc1 (configuration not stated) ... 3.61
CCOC(=O)C1=C(N/N=C(/C#N)C(=O)OCC)Nc2[nH]nc(C)c2C1c1ccc(N(C)C)cc1 (configuration not stated) ... 3.33
CCOC(=O)C(=NNC1=C(C(=O)OCC)C(c2ccc(N(C)C)cc2)c2c(C)n[nH]c2N1)C(=O)OCC (configuration not stated) ... 3.29

Query block: # query: log10 MIC | item CCOC(=O)C1=C(N/C=N/c2ccccn2)Nc2[nH]nc(C)c2C1c1ccc(N(C)C)cc1 (configuration not stated) | system: Aspergillus fumigatus
Result block: 2.45

Query block: # query: log10 MIC | item CCOC(=O)C1=C(N/N=C(/C(=O)Br)c2ccc(Cl)cc2)Nc2[nH]nc(C)c2C1c1ccc(N(C)C)cc1 (configuration not stated) | system: Aspergillus fumigatus
Result block: 3.53

Query block: # query: log10 MIC | item CCOC(=O)C1=C(NN=C(C(C)=O)C(C)=O)Nc2[nH]nc(C)c2C1c1ccc(N(C)C)cc1 (configuration not stated) | system: Aspergillus fumigatus
Result block: 3.65

Query block: # query: log10 MIC | item CCOC(=O)C1=C(N/C=N/c2ncc(-c3ccccc3)s2)Nc2[nH]nc(C)c2C1c1ccc(N(C)C)cc1 (configuration not stated) | system: Aspergillus fumigatus
Result block: 3.58

Query block: # query: log10 MIC | item CCOC(=O)C1=C(N/N=C(/C(C)=O)C(=O)OCC)Nc2[nH]nc(C)c2C1c1ccc(N(C)C)cc1 (configuration not stated) | system: Aspergillus fumigatus
Result block: 3.32

Query block: # query: log10 MIC | item CCOC(=O)C1=C(N/N=C(/Cl)C#N)Nc2[nH]nc(C)c2C1c1ccc(N(C)C)cc1 (configuration not stated) | system: Aspergillus fumigatus
Result block: 3.67

Query block: # query: log10 MIC | item CCOC(=O)C1=C(N/N=C(/Cl)c2ccc([N+](=O)[O-])cc2)Nc2[nH]nc(C)c2C1c1ccc(N(C)C)cc1 (configuration not stated) | system: Aspergillus fumigatus
Result block: 3.28

Query block: # query: log10 MIC | item CCOC(=O)C1=C(N/C=N/c2nnc(S(N)(=O)=O)s2)Nc2[nH]nc(C)c2C1c1ccc(N(C)C)cc1 (configuration not stated) | system: Aspergillus fumigatus
Result block: 2.97

Query block: # query: log10 MIC | item CCOC(=O)C1=C(N/N=C(\C#N)C(N)=O)Nc2[nH]nc(C)c2C1c1ccc(N(C)C)cc1 (configuration not stated) | system: Aspergillus fumigatus
Result block: 3.66
